Data provenance: patent US20060079447A1

- Target Desc: Aβ(1-40) fibrils / biotinyl-Aβ(1-40) (Homo sapiens)
- Construct: purchased Keck Biotechnology Center at Yale University
- Sequence (P05067 672-711): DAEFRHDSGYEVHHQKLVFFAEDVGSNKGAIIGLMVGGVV
- Assay Summary: Microplate Aβ(1-40) elongation screening assay, LOPAC library
- Assay type: biochemical
- Stated Conditions: original LOPAC screen; deposition of biotinyl-Aβ(1-40) on immobilized fibrils
Where a name gives a salt, the structure may show the parent alone.
Quantity Kind: Initial stimulation observed
Your answer should be a number followed by the unit of measure.

So what Initial stimulation observed did NC(=Nc1ccccc1)NC(=O)c1nc(Cl)c(N)nc1N [Phenamil methane sulfonate, phenamil methane sulfonate] get with Aβ(1-40) fibrils / biotinyl-Aβ(1-40) (Homo sapiens)?
242%

Each of the following entries comes with a recorded value; kindly state Initial stimulation observed for each.
1. COc1ccccc1N1CCN(CC(O)COc2cccc3ccccc23)CC1 (stereo not shown) [Naftopidil dihydrochloride, naftopidil dihydrochloride]
2. CCCCCCCCCCCCC(=O)N1CCCCC1CNC(=O)C(N)CCCCN (stereo not shown) [NPC15437]
3. Clc1ccc(C(c2ccc(Cl)cc2)n2cc[n+](CC(OCc3ccc(Cl)cc3Cl)c3ccc(Cl)cc3Cl)c2)cc1 (stereo not shown) [Calmidazolium chloride, calmidazolium chloride]
4. CCCCCCCCCOc1ccc2[nH]cc(CCN)c2c1.O=C(O)C(=O)O [5-(nonyloxy)-tryptamine hydrogen oxalate]
5. C[C@](N)(Cc1ccc(O)c(O)c1)C(=O)O [L-α-methyl DOPA]

150%
149%
598%
136%
127%

So what Initial stimulation observed did N=C(N)NC(=O)c1nc(Cl)c(N)nc1N [Amiloride HCl, amiloride HCl] get with Aβ(1-40) fibrils / biotinyl-Aβ(1-40) (Homo sapiens)?
96%
